Recorded values, source the Human Domainome abundance scans (Beltran et al. 2025).

B1: Zinc finger homeobox protein 3, residues 2643 to 2698; numbered along this chain, Q15911 (parent)
chain: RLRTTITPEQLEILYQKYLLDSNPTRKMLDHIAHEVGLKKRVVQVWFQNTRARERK

# Variants of: B1
# assay.info: abundance fitness (aPCA) (normalised: wild type 0, dead -1); higher = more abundant; growth selection in yeast, the domain comes from the species named
# assay.context: Homo sapiens
experimental.readout: abundance fitness

Name the recorded abundance fitness for RLRTTITPEQLEILYQKYLLDSNPTRFMLDHIAHEVGLKKRVVQVWFQNTRARERK [K27F] .
-0.293

Would you kindly repeat that for RLRTTITPEQLEILYQKYLLDSNPTRKMLDHIAHEVILKKRVVQVWFQNTRARERK [G37I] ?
-0.891

Would you kindly repeat that for RLRTTITPEQLEILYQKYLLDSNPTRKMLDHIAHEVGLKKRVPQVWFQNTRARERK [V43P] ?
-0.739

Would you kindly repeat that for RLRTTITPEQLEILYQKYLDDSNPTRKMLDHIAHEVGLKKRVVQVWFQNTRARERK [L20D] ?
-0.226

Would you kindly repeat that for GLRTTITPEQLEILYQKYLLDSNPTRKMLDHIAHEVGLKKRVVQVWFQNTRARERK [R1G] ?
0.258

Would you kindly repeat that for RLRTTITPEQLEILYQKYLLDSNPTRKMLDHIAHEVGLKKRVVQVWFQNTRARCRK [E54C] ?
-0.306

Would you kindly repeat that for RLRTTITPEQLEILYQKYLLDSNPTRKMLDHIAHEVGLKKRVVQVWFQNTRARPRK [E54P] ?
-0.38

Would you kindly repeat that for RLRTTITPEPLEILYQKYLLDSNPTRKMLDHIAHEVGLKKRVVQVWFQNTRARERK [Q10P] ?
-0.717

Would you kindly repeat that for RLRTTITPEQLEILYQKYLLDSNPTRKMLDHIAKEVGLKKRVVQVWFQNTRARERK [H34K] ?
0.213

Would you kindly repeat that for RLRTTITPEQLEILYQKYLLDTNPTRKMLDHIAHEVGLKKRVVQVWFQNTRARERK [S22T] ?
-0.315

Would you kindly repeat that for RLTTTITPEQLEILYQKYLLDSNPTRKMLDHIAHEVGLKKRVVQVWFQNTRARERK [R3T] ?
0.435

Would you kindly repeat that for RLRTTITPEQLEILYQKYLLDSNPTRKMLDHIAHEVGLKKRHVQVWFQNTRARERK [V42H] ?
-0.288

Would you kindly repeat that for RLRTTITPEQLEILYFKYLLDSNPTRKMLDHIAHEVGLKKRVVQVWFQNTRARERK [Q16F] ?
0.042

Would you kindly repeat that for RLRTTITPEQLEILYQKYLLDSNPTRKMLDEIAHEVGLKKRVVQVWFQNTRARERK [H31E] ?
0.265

Would you kindly repeat that for RLRTTITPEQLEILYQKYLLDSNPTRKMLDHRAHEVGLKKRVVQVWFQNTRARERK [I32R] ?
-1.01

Would you kindly repeat that for RLRTTITPEQLEILYQKYLLDSNPTYKMLDHIAHEVGLKKRVVQVWFQNTRARERK [R26Y] ?
-0.031

Would you kindly repeat that for RLRTTITPEQLEILYQKYLLDSNSTRKMLDHIAHEVGLKKRVVQVWFQNTRARERK [P24S] ?
-0.764

Would you kindly repeat that for RLRTTITPEQLEILYQKYLLDSNPTRKMLDHIAYEVGLKKRVVQVWFQNTRARERK [H34Y] ?
-0.012

Would you kindly repeat that for RLRTTITPEQLEILYPKYLLDSNPTRKMLDHIAHEVGLKKRVVQVWFQNTRARERK [Q16P] ?
-1.08

Would you kindly repeat that for RLRTTITPEQLEILYQKYLLDSNPTRKMLDHIAHEVGLKKRVVQCWFQNTRARERK [V45C] ?
-0.329

Would you kindly repeat that for RLRTTITPEQLEILYQKYLLSSNPTRKMLDHIAHEVGLKKRVVQVWFQNTRARERK [D21S] ?
-0.417

Would you kindly repeat that for RLRRTITPEQLEILYQKYLLDSNPTRKMLDHIAHEVGLKKRVVQVWFQNTRARERK [T4R] ?
-0.576

Would you kindly repeat that for RLRTTITPEQLEILYQKYLLDSNPTRKMLDHIAHEVGLKKRVVQVWFQNPRARERK [T50P] ?
-0.6

Would you kindly repeat that for RLRTTITPEQLEILYQKYLLDSNPTRKMLDHIAHEFGLKKRVVQVWFQNTRARERK [V36F] ?
-0.568

Would you kindly repeat that for RLRTTITPEQLEILYQKYLLDSNPTRKMLDHIAHVVGLKKRVVQVWFQNTRARERK [E35V] ?
-0.255

Would you kindly repeat that for RLRTTITPEQLEILYQKYLLDSNPTRKMLDHIAHEVGLKKRVVQVWFQRTRARERK [N49R] ?
-0.267

Would you kindly repeat that for RLRTTITPEQLEILYQKYLLCSNPTRKMLDHIAHEVGLKKRVVQVWFQNTRARERK [D21C] ?
-0.426

Would you kindly repeat that for RLRTTITPEQLEILYTKYLLDSNPTRKMLDHIAHEVGLKKRVVQVWFQNTRARERK [Q16T] ?
-0.021

Would you kindly repeat that for RLRTTITPEQLEILYQKYLLDSNPTRKMLDHIAHEVFLKKRVVQVWFQNTRARERK [G37F] ?
-0.55

Would you kindly repeat that for RLRTTITPEQLEILYQKYLLDSNPTRKMLDHIAHEVGLKKRVVQVWLQNTRARERK [F47L] ?
-0.639

Would you kindly repeat that for RLRTTITPDQLEILYQKYLLDSNPTRKMLDHIAHEVGLKKRVVQVWFQNTRARERK [E9D] ?
-0.042

Would you kindly repeat that for RLRTTITPEQLEILYQKYLLDSNPTRKMLDHIAHEVGLKKRVVQVWFQNNRARERK [T50N] ?
-0.572

Would you kindly repeat that for RLRTTITPEQLEILYQKYLLDSNPTRKMLDHIAHHVGLKKRVVQVWFQNTRARERK [E35H] ?
-0.274

Would you kindly repeat that for RLRPTITPEQLEILYQKYLLDSNPTRKMLDHIAHEVGLKKRVVQVWFQNTRARERK [T4P] ?
0.149

Would you kindly repeat that for RLRTTITPEQLEILYQKYLLDSNPTRKMLDHIAHEVGLKKWVVQVWFQNTRARERK [R41W] ?
0.055

Would you kindly repeat that for RLRTTITPEQLEILYQKYLLDSNPTRKMLDHIAHEVGQKKRVVQVWFQNTRARERK [L38Q] ?
-0.734

Would you kindly repeat that for RLRTTITPEQLEIDYQKYLLDSNPTRKMLDHIAHEVGLKKRVVQVWFQNTRARERK [L14D] ?
-0.568

Would you kindly repeat that for RLRTTITPEQLEILYQKYLLDSNPTRKMLDHIAHEVGKKKRVVQVWFQNTRARERK [L38K] ?
-0.712

Would you kindly repeat that for RLRTTITPEQLEILYQKYDLDSNPTRKMLDHIAHEVGLKKRVVQVWFQNTRARERK [L19D] ?
-0.211

Would you kindly repeat that for RLRTTITPEQLEILYQKYLLDSNPLRKMLDHIAHEVGLKKRVVQVWFQNTRARERK [T25L] ?
-0.552

Would you kindly repeat that for RLRTTITPEQLEILYQKYNLDSNPTRKMLDHIAHEVGLKKRVVQVWFQNTRARERK [L19N] ?
-0.422

Would you kindly repeat that for RLRTTITPEQLEILYQVYLLDSNPTRKMLDHIAHEVGLKKRVVQVWFQNTRARERK [K17V] ?
-0.52

Would you kindly repeat that for RLRTTITPEQLEILYQKYLLDSNPTRKMLDHIAHEVGLKKSVVQVWFQNTRARERK [R41S] ?
0.411

Would you kindly repeat that for RLRTTITPEQLEILYQKYLLVSNPTRKMLDHIAHEVGLKKRVVQVWFQNTRARERK [D21V] ?
-0.407

Would you kindly repeat that for RLRTTITPEQLEILYQKYLLDSNPTRKMLDHIAHEVGLKKKVVQVWFQNTRARERK [R41K] ?
0.297

Would you kindly repeat that for RLRTTITPEQLEIGYQKYLLDSNPTRKMLDHIAHEVGLKKRVVQVWFQNTRARERK [L14G] ?
-0.956

Would you kindly repeat that for RLRTTITPEQLEILYQKYLLDSNPTRKMLDHIAHEVGLKKRVVQVWTQNTRARERK [F47T] ?
-0.997

Would you kindly repeat that for RLRTTITPEQLEILYQKYLLDSNPTRKMLDHIAHEVGLKKRVVQVWCQNTRARERK [F47C] ?
-0.945

Would you kindly repeat that for RLRTTITPEQLEILYQKYLLDSNPTRKMLDHIAHEVGRKKRVVQVWFQNTRARERK [L38R] ?
-0.846

Would you kindly repeat that for RLRTTRTPEQLEILYQKYLLDSNPTRKMLDHIAHEVGLKKRVVQVWFQNTRARERK [I6R] ?
-0.868

Would you kindly repeat that for RLRTTITPEQKEILYQKYLLDSNPTRKMLDHIAHEVGLKKRVVQVWFQNTRARERK [L11K] ?
-0.143

Would you kindly repeat that for RLRTTITPEQLEILYQKYLLDSNPTRKMLDHIAHEVGLKKRVVQVWFQNTRAYERK [R53Y] ?
-0.327

Would you kindly repeat that for RLRTTITPEQLEILYQKYLLDSNPTRKMTDHIAHEVGLKKRVVQVWFQNTRARERK [L29T] ?
-0.273

Would you kindly repeat that for RLRTTITPEQLEILYQKYLLDSNPTRKMLDHIAHEVGLKKRVVWVWFQNTRARERK [Q44W] ?
-0.669

Would you kindly repeat that for RLRTTITPEQLEILYQKYLLDSNPTRKMNDHIAHEVGLKKRVVQVWFQNTRARERK [L29N] ?
-0.724

Would you kindly repeat that for RLRTTITPEQLEILYQKYLLDSNPTRKMLDHIAHEVGLKKRVVQVWFQNTRARERV [K56V] ?
-0.073

Would you kindly repeat that for RLRTTITPEQLEILYQKYLLDLNPTRKMLDHIAHEVGLKKRVVQVWFQNTRARERK [S22L] ?
-0.643

Would you kindly repeat that for RLRTTITPEQLEILYQKYLLDSNPTRKMLDHIAHEVGLKKRVVEVWFQNTRARERK [Q44E] ?
0.283

Would you kindly repeat that for RLRTTITPEQLEILYQKGLLDSNPTRKMLDHIAHEVGLKKRVVQVWFQNTRARERK [Y18G] ?
-0.899

Would you kindly repeat that for RLRTAITPEQLEILYQKYLLDSNPTRKMLDHIAHEVGLKKRVVQVWFQNTRARERK [T5A] ?
0.132

Would you kindly repeat that for RLRTTITPEQLECLYQKYLLDSNPTRKMLDHIAHEVGLKKRVVQVWFQNTRARERK [I13C] ?
-0.058

Would you kindly repeat that for RLRTTITPEQLEILYQKYLLDSNPTRKMLTHIAHEVGLKKRVVQVWFQNTRARERK [D30T] ?
-0.312

Would you kindly repeat that for RLRTTITPEQLEIHYQKYLLDSNPTRKMLDHIAHEVGLKKRVVQVWFQNTRARERK [L14H] ?
-0.793

Would you kindly repeat that for RLRTTITPEQLEILYQKYLLDSNPTRKMLDHIAHEVGLKKRVVQVWFQNTRARERN [K56N] ?
-0.07

Would you kindly repeat that for RLRTTITPEQLEILYQKYLLDSNPTRKMLDHIAHEVGLKKRVVQVWKQNTRARERK [F47K] ?
-0.812

Would you kindly repeat that for RLRTTITPEQLEILYQKYLLDSNPTRKMLDHIAHEVGLKKRVVQVWFQITRARERK [N49I] ?
-0.267

Would you kindly repeat that for RYRTTITPEQLEILYQKYLLDSNPTRKMLDHIAHEVGLKKRVVQVWFQNTRARERK [L2Y] ?
0.222

Would you kindly repeat that for RLRTTITPEQLEILYQKYLLDSNPIRKMLDHIAHEVGLKKRVVQVWFQNTRARERK [T25I] ?
-0.502

Would you kindly repeat that for RDRTTITPEQLEILYQKYLLDSNPTRKMLDHIAHEVGLKKRVVQVWFQNTRARERK [L2D] ?
0.655

Would you kindly repeat that for RLRTTITPEQLEILYQKYLLDSNPTRKMVDHIAHEVGLKKRVVQVWFQNTRARERK [L29V] ?
-0.043

Would you kindly repeat that for RLRTTITPEQLEILYQKYLLDSNYTRKMLDHIAHEVGLKKRVVQVWFQNTRARERK [P24Y] ?
-0.548

Would you kindly repeat that for RLRTTITPEQLEILYQKYLLDSNPTRKMLDIIAHEVGLKKRVVQVWFQNTRARERK [H31I] ?
0.009

Would you kindly repeat that for RLRTTITPEQLEILYQKYLLDSGPTRKMLDHIAHEVGLKKRVVQVWFQNTRARERK [N23G] ?
-0.276

Would you kindly repeat that for RLRTTITPEQLEILHQKYLLDSNPTRKMLDHIAHEVGLKKRVVQVWFQNTRARERK [Y15H] ?
-0.152

Would you kindly repeat that for RLRTTITPEQLEILYQKYLLDPNPTRKMLDHIAHEVGLKKRVVQVWFQNTRARERK [S22P] ?
0.099

Would you kindly repeat that for RLRTTITPEQLEILYQKYLLDSNPTRKMLDHIAHEVGLKKRVVQVWFQETRARERK [N49E] ?
0.406

Would you kindly repeat that for RLRTTITPEQLEILYQKYLLDSNPTIKMLDHIAHEVGLKKRVVQVWFQNTRARERK [R26I] ?
0.323

Would you kindly repeat that for RLRTTITPLQLEILYQKYLLDSNPTRKMLDHIAHEVGLKKRVVQVWFQNTRARERK [E9L] ?
-0.31

Would you kindly repeat that for RLRTTITPHQLEILYQKYLLDSNPTRKMLDHIAHEVGLKKRVVQVWFQNTRARERK [E9H] ?
-0.229

Would you kindly repeat that for RLGTTITPEQLEILYQKYLLDSNPTRKMLDHIAHEVGLKKRVVQVWFQNTRARERK [R3G] ?
0.228
